For each of the molecules below, state its cytotoxicity at 10 µM.
# PROCEDURE_TEXT: Toxicity liver stage against HepG2, at 10uM
# Assay type: cell-based
# Set-up: test concentration 10 uM, cell line HepG2-A16-CD81EGFP
# SETUP_CONDITIONS: human, HepG2-A16-CD81EGFP cells; read-out: INHIBITION
Numbers only, in %.

Lab note: each molecule below needs its cytotoxicity at 10 µM filled in.
1. c1coc(CN2CC[C@H]3O[C@@H](COCC4CC4)CC[C@H]32)c1
2. CCOC(=O)Cc1cs/c(=N/C(=O)COc2cnc(C)cc2O)[nH]1
3. Cc1nc(C(=O)N(CC(=O)N(C)C)CC(F)(F)F)c2ccccn12
4. O=C(Cc1cc(-c2ccc3c(c2)OCO3)on1)NC1CCCC1
5. Cc1noc(Cl)c1CCC(=O)N1CCC(Nc2cccnn2)CC1
6. CCN1CCOCC12CCN(C(=O)Cc1cccs1)CC2

Reply:
1. -137
2. 4.62
3. -16.4
4. -2.34
5. -2.57
6. 6.22

* * *

Please provide measured cytotoxicity at 10 µM for the entries that follow.
# PROCEDURE_TEXT: Toxicity liver stage against HepG2, at 10uM
# Type: cell-based
# Parameters: test concentration 10 uM, cell line HepG2-A16-CD81EGFP
# SETUP_CONDITIONS: human, HepG2-A16-CD81EGFP cells; read-out: INHIBITION
Answers are plain numbers, in %.

COMPOUND | UNIT | VALUE_MEASURED
Cc1cc(C)n(NC(=O)c2ccccc2C)c(=O)c1 | % | -5.05
Cc1cc(C)nc(NC2CCOC3(CCCC3)C2)n1 (stereo unspecified) | % | 7.93

For each of the items listed, what is its cytotoxicity at 10 µM?
1. CSc1cc(CNC(=O)CCOc2ccccc2C)ccn1
2. Cc1ccccc1-n1cc(-c2ccnc(NC(CO)C(C)C)n2)cn1 (stereo unspecified)
3. COCCNC(=O)Cn1cc(OCc2ccc(F)cc2)c(=O)cc1C
4. COCCNC(=O)c1ccc(C)c(-n2cccc2)c1

Reply:
1: 6.72; 2: 7.12; 3: -3.04; 4: -3.06

* * *

Please go through the items and note down their cytotoxicity at 10 µM.
# PROCEDURE_TEXT: Toxicity liver stage against HepG2, at 10uM
# Assay type: cell-based
# Design: test concentration 10 uM, cell line HepG2-A16-CD81EGFP
# SETUP_CONDITIONS: human, HepG2-A16-CD81EGFP cells; read-out: INHIBITION
One number for each entry, in %.

COMPOUND | VALUE_MEASURED
O=C([C@H]1CN(Cc2ccc(F)cc2)C[C@H]2OCC[C@@H]12)N1CCCO1 | 7.77
O=C(Cc1ccc2c(c1)OCO2)N1CCCN(c2nccs2)CC1 | -11.9
N#Cc1c(F)cccc1N1CCCC(C(=O)Nc2nccs2)C1 (stereo unspecified) | 8.92

Hey, quick one: what's cytotoxicity at 10 µM for each of these?
1. O=C(CN1CCOC(Cn2cccn2)C1)NCc1ccccn1 (stereo unspecified)
2. COC(=O)c1cccc(CNC(=O)NCCC(F)(F)F)c1
3. Cc1ccc(-c2nc(CSCCC(=O)NC(N)=O)co2)cc1

Reply:
-6.73
-0.247
-2.69
